Target: human recombinant Trypsin (Homo sapiens)
Construct: no catalogue number for trypsin itself)
Experiment: Green protease assay (trypsin inhibitory activity)
Details: 37 °C, 30 min
measured.parameter: pIC50
Scale explanation: pIC50 corresponds to minus log10 of a concentration expressed in moles per litre.

{"columns": ["molecule", "pIC50"],
 "data": [
  ["COc1cc(O)c2c(=O)c3c(C)cc(O)cc3oc2c1 [compound 12, griseoxanthone C]", 4.29]
]}

The record that follows has no pIC50 shown yet.
Enter pIC50 (test system human recombinant Trypsin (Homo sapiens)) for Nc1ncnc2c1ncn2C1OC(CO)C(O)C1O (stereo not drawn) [compound 18, ara-A] 3.86

###

Target: HCV NS3/4A protease (Hepatitis C virus genotype 1b (strain HC-J4), UniProt O92972)
Sequence (O92972 1027-1207, other chains not shown): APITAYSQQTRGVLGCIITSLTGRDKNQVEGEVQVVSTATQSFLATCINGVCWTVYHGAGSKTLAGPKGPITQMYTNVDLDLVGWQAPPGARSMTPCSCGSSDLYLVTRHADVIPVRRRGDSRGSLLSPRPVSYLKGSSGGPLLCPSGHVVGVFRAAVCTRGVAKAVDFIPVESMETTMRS
Assay: HCV protease inhibitory activity (SensoLyte 520 HCV protease assay kit, fluorimetric)
Type: biochemical
Settings: recHCV PR, 37 °C, 30 min; read-out: IC50 HCV Protease Inhibitory Activity
hey, just use Met if measured IC50 is less than 40 µM, otherwise Not met

{"columns": ["molecule", "assigned.category"],
 "data": [
  ["Nc1ncnc2c1ncn2C1OC(CO)C(O)C1O (stereo not shown) [compound 18, ara-A]", "Met"]
]}

Record O=C1c2cc(O)cc(O)c2C(=O)c2c(O)cc(CO)cc21 [compound 14, ω-hydroxyemodin] : is its IC50 strictly below 40 µM? Met

Record Cc1cc(O)c2c(c1)C(=O)c1cccc(O)c1C2=O [compound 13, chrysophanol] : is its IC50 strictly below 40 µM? Not met

Record CC(C)[C@@H](C)CC[C@@H](C)C1CCC2C3=CC=C4C[C@@H](O)CC[C@]4(C)C3CC[C@@]21C (stereo partly drawn) [compound 8, ergostra-5,7-dien-3β-ol] : is its IC50 strictly below 40 µM? Not met

Record Cc1c[nH]c(=O)[nH]c1=O [compound 4, thymine] : is its IC50 strictly below 40 µM? Not met

###

Biological target: HCV NS3/4A protease (Hepatitis C virus genotype 1b (strain HC-J4), UniProt O92972)
Assay: HCV protease inhibitory activity (SensoLyte 520 HCV protease assay kit, fluorimetric)
Assay type: biochemical
Conditions: IC50 HCV Protease Inhibitory Activity, recHCV PR, 37 °C, 30 min
measured.parameter: IC50 (µM)
// note: answer is a bare numeric in µM

Please indicate IC50 recorded for CC(C=CC=C(C)C(O)C(C)C1CC(O)C(C)=CC=CC(C)C2CC(CC=CC(=O)O1)CC(=O)O2)=Cc1coc(C)n1 (stereo not shown) 34.4

###

Tested on: Staphylococcus aureus
Test: Antimicrobial activity, inhibition zone
Type: cell-based
Settings: oxytetracycline control 30 μg, read-out: Inhibition zone, Staphylococcus aureus
Peptide text beside a SMILES is read from it.
# zone of inhibition per entry
The reply should read as a number followed by its unit.

{"columns": ["compound", "target.of.assay", "zone of inhibition"],
 "data": [
  ["O=C1c2cc(O)cc(O)c2C(=O)c2c(O)cc(CO)cc21 [compound 14, ω-hydroxyemodin]", "Staphylococcus aureus", "12 mm"],
  ["Nc1ncnc2c1ncn2C1OC(CO)C(O)C1O (centres unmarked)", "Staphylococcus aureus", "10 mm"],
  ["CC(C)CC1NC(=O)C2CCCN2C(=O)C(Cc2ccccc2)NC(=O)C2CCCN2C1=O (stereo not drawn) [compound 5, cyclo[Phenylalanyl-Pro-Leu-Pro]] (cyclo(FPLP); configuration not given here)", "Staphylococcus aureus", "9 mm"],
  ["Nc1ncnc2c1ncn2[C@@H]1O[C@H](CO)C[C@H]1O [compound 17, cordycepin]", "Staphylococcus aureus", "16 mm"]
]}

The record that follows has no zone of inhibition shown yet.
Enter zone of inhibition (test system Staphylococcus aureus) for OCc1ccc(-c2nccc3c2[nH]c2ccccc23)o1 14 mm

###

System: Staphylococcus aureus
Assay: Antimicrobial activity, inhibition zone
Format: cell-based
Conditions: oxytetracycline control 30 μg, read-out: Inhibition zone, Staphylococcus aureus
measured.parameter: zone of inhibition (mm)
// note: answer is a bare numeric in mm

Example entries begin here.
{"columns": ["compound", "measured.parameter", "meas.value"],
 "data": [
  ["CC[C@@H](CC[C@@H](C)C1CCC2C3CC=C4C[C@@H](O[C@@H]5O[C@H](CO)[C@@H](O)[C@H](O)[C@H]5O)CC[C@]4(C)C3CC[C@@]21C)C(C)C (stereo partly drawn) [compound 9, β-sitosterol 3-O-β-glucoside]", "zone of inhibition", 9],
  ["CN(C)[C@@H]1C(O)=C(C(N)=O)C(=O)[C@@]2(O)C(O)=C3C(=O)c4c(O)cccc4[C@@](C)(O)[C@H]3[C@H](O)[C@@H]12 [Oxytetracycline, reference compound]", "zone of inhibition", 17]
]}

Please indicate zone of inhibition recorded for Cc1cc(O)c2c(c1)C(=O)c1cccc(O)c1C2=O 15

###

System: Candida albicans
Experiment: Antimicrobial activity, inhibition zone
Format: cell-based
Settings: oxytetracycline control 30 μg
Peptide text beside a SMILES is read from it.
# zone of inhibition per entry
// note: answer is a bare numeric in mm

Example entries begin here.
{"columns": ["compound", "meas.value"],
 "data": [
  ["OCc1ccc(-c2nccc3c2[nH]c2ccccc23)o1 [compound 16, perlolyrin]", 10],
  ["CC(C=CC=C(C)C(O)C(C)C1CC(O)C(C)=CC=CC(C)C2CC(CC=CC(=O)O1)CC(=O)O2)=Cc1coc(C)n1 (centres unmarked) [compound 6, 17-demethyl-2,11-dideoxy-rhizoxin]", 19],
  ["Nc1ncnc2c1ncn2[C@@H]1O[C@H](CO)C[C@H]1O [compound 17, cordycepin]", 14],
  ["O=C1c2cc(O)cc(O)c2C(=O)c2c(O)cc(CO)cc21 [compound 14, ω-hydroxyemodin]", 18],
  ["CC[C@@H](CC[C@@H](C)C1CCC2C3CC=C4C[C@@H](O[C@@H]5O[C@H](CO)[C@@H](O)[C@H](O)[C@H]5O)CC[C@]4(C)C3CC[C@@]21C)C(C)C (stereo partly drawn) [compound 9, β-sitosterol 3-O-β-glucoside]", 10]
]}

Enter zone of inhibition (test system Candida albicans) for CC(C)CC1NC(=O)C2CCCN2C(=O)C(Cc2ccccc2)NC(=O)C2CCCN2C1=O (stereo not drawn) [compound 5, cyclo[Phenylalanyl-Pro-Leu-Pro]] (cyclo(FPLP); configuration not given here) 12

Enter zone of inhibition (test system Candida albicans) for CC(C)[C@@H]1NC(=O)[C@@H]2CCCN2C1=O [compound 2, cyclo(L-Pro-L-Val)] 9

Enter zone of inhibition (test system Candida albicans) for Cc1cc(O)c2c(c1)C(=O)c1cccc(O)c1C2=O [compound 13, chrysophanol] 11

###

Target: human recombinant Trypsin (Homo sapiens, UniProt P07477)
Construct: no catalogue number for trypsin itself)
Experiment: Green protease assay (trypsin inhibitory activity)
Conditions: 37 °C, 30 min
Peptide text beside a SMILES is read from it.
measured.parameter: pIC50
Scale explanation: pIC50 corresponds to minus log10 of a concentration expressed in moles per litre.

Example entries begin here.
{"columns": ["compound", "target.of.assay", "pIC50"],
 "data": [
  ["CC(C=CC=C(C)C(O)C(C)C1CC(O)C(C)=CC=CC(C)C2CC(CC=CC(=O)O1)CC(=O)O2)=Cc1coc(C)n1 (stereo not shown) [compound 6, 17-demethyl-2,11-dideoxy-rhizoxin]", "human recombinant Trypsin (Homo sapiens, UniProt P07477)", 3.84],
  ["CC(C)CC1NC(=O)C2CCCN2C(=O)C(Cc2ccccc2)NC(=O)C2CCCN2C1=O (stereo not drawn) [compound 5, cyclo[Phenylalanyl-Pro-Leu-Pro]] (cyclo(FPLP); configuration not given here)", "human recombinant Trypsin (Homo sapiens, UniProt P07477)", 3.65]
]}

Please indicate pIC50 recorded for O=C1N[C@H](Cc2ccc(O)cc2)C(=O)N2CCC[C@H]12 [compound 15, cyclo(L-Tyr-L-Pro)] 4.42

###

Biological target: HCV NS3/4A protease (Hepatitis C virus genotype 1b (strain HC-J4), UniProt O92972)
Test: HCV protease inhibitory activity (SensoLyte 520 HCV protease assay kit, fluorimetric)
Type: biochemical
Conditions: recHCV PR, 37 °C, 30 min; read-out: IC50 HCV Protease Inhibitory Activity
measured.parameter: IC50 (µM)
// note: answer is a bare numeric in µM

Example entries begin here.
{"columns": ["molecule", "measured.parameter", "unit.abbrev", "meas.value"],
 "data": [
  ["CC(C)CC1NC(=O)C(C)NC1=O (centres unmarked)", "IC50", "µM", 58.3],
  ["CC[C@@H](CC[C@@H](C)C1CCC2C3CC=C4C[C@@H](O[C@@H]5O[C@H](CO)[C@@H](O)[C@H](O)[C@H]5O)CC[C@]4(C)C3CC[C@@]21C)C(C)C (stereo partly drawn) [compound 9, β-sitosterol 3-O-β-glucoside]", "IC50", "µM", 76.6],
  ["O=C1N[C@H](Cc2ccc(O)cc2)C(=O)N2CCC[C@H]12", "IC50", "µM", 18.2]
]}

Enter IC50 (test system HCV NS3/4A protease (Hepatitis C virus genotype 1b (strain HC-J4), UniProt O92972)) for CC1=C(O)C(=O)C(Cl)=C(O)C1=O 35.1
